Catalogue of binders with associated koff
- measurement_target: T1, human PD-L1-His (Sino Biological, Cat #10084-H08H) (human, UniProt Q9NZQ7 19-238)
- T1 construct: Bought protein; also called human PD-L1 ECD-His; recombinant human PD-L1-His protein; not shown: His tag
- T1 sequence (Q9NZQ7 19-238): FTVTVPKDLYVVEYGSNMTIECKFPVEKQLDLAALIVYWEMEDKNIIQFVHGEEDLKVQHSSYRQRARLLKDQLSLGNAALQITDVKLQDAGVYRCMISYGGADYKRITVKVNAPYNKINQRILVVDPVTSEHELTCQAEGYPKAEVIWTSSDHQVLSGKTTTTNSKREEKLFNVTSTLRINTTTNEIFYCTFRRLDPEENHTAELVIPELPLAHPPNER
- assay_overview: BLI (Gator), antibody on HFC probe, human PD-L1-His in solution
Give just the number in s⁻¹; leave the unit off.

Please review the entries below; each comes with its answer.
| binder | koff (s⁻¹) |
| --- | --- |
| 57F11 (antibody, human IgG1, V domains shown) VH: QEHLEESGGGLVQPEGALTLTCTASGFSFSGDYYMSWVRQAPGKGLEWIASIYTGSLNTYYATWAKGRFTISIASSTTVTLQVTSLTAADTATYFCARRTKNGDYGYFDLWGPGTLVTVSS VL: YDMTQTPASVEVAVGGTVTIKCQASQSINDRLAWYQQKPGQPPKLLIYAASTLASGVPSRFKGSGSGTEFTLTISDLECADAATYYCQQGWTVSSLENAFGGGTEVVAK | 0.000113 |
| 55H3/76D6 (antibody, human IgG1, V domains shown) VH: QEQLEESGGGLVQPEGSLTLTCTVSGFSFSGDYYMSWVRQAPGKGLEWVASIYTGSLNSYYATWAKGRFTISLTSSTTVTLQMTSLTAADTATYFCARRNKNADYGHFDLWGPGTLVTVSS VL: YDMTQTPASVEVAVGGTVTIKCQASESINDRLAWYQQKPGQPPKLLIYAASTLASGVPSRFRGSGSGTDFTLTISDLECADAATYYCQQGWTVSSLDNAFGGGTEVVAM | 0.000317 |

Proceed to the following item.
Query: For the binder shown here, 56H3 (antibody, human IgG1, V domains shown) VH: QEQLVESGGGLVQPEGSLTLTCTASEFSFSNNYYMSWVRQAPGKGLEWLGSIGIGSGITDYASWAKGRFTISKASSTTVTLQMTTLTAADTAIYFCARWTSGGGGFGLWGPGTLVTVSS VL: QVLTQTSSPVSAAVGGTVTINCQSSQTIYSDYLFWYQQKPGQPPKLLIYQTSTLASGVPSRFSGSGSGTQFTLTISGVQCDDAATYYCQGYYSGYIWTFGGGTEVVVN , give the reported koff.
Response: 0.000399
